# maps each entry to its kon
- ASSAYED SYSTEM: T1, Biotinylated murine VEGF-164 (Acro Biosystem) (mouse, UniProt Q00731-2 27-190, biotinylated (site not stated))
- T1 construct: Bought protein; also called Mouse VEGF164; mouse VEGFA
- T1 sequence (looked up): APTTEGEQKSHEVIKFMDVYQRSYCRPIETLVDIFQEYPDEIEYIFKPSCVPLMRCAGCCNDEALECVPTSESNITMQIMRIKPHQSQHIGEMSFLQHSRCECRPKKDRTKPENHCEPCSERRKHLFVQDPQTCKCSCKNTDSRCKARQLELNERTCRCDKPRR
- TEST: BLI, biotinylated antigen on streptavidin tips, 1:1 global fit
Numeric answer only, unit M⁻¹ s⁻¹ assumed.

Illustrative cases are given below, each with its answer.
[in] Provide only the value of recorded kon for 16A2.1 (VHH, E. coli, ATG codon 5' (possible initiator Met), 3' hexahistidine tag; also called anti-VEGF DotBody 16A2.1; clone 16A2.1) VHH: EVQLVESGGGLVQPGGSLRLSCAISGFALAETDIDWVRQAPGKGLEWVARIFSSGGNTDYADSVKGRFTISADTSKNTVYLQMNSLRAEDTAVYYCGRSDSIAYNVILPNSTYTARDYRGQGTLVTVSS
[out] 116000

[in] Provide only the value of recorded kon for 21A8.1 (VHH, Autonomous humanised VH domain (DotBody), from the 16C2.1-based library with heat challenge; E. coli, ATG codon 5' (possible initiator Met), 3' hexahistidine tag; also called DotBody 21A8.1) VHH: EVQLVESGGGLVQPGGSLRLSCAISGFSVDATDIDWVRQAPGKGLEWVARIFSPSGFTDYADSVKGRFTISADTSKNTVYLQMNSLRAEDTAVYYCDRPEFYAYNIFHDPRTVPAGNYRGQGTLVTVSS
[out] 63400

[in] Provide only the value of recorded kon for 13A6 (VHH, Autonomous humanised VH domain (DotBody); also called anti-VEGF DotBody 13A6; clone 13A6) VHH: EVQLVESGGGLVQPGGSLRLSCAISGFSLAATDIDWVRQAPGKGLEWVARIFPSAGSTDYADSVKGRFTISADTSKNTVYLQMNSLRAEDTAVYYCGRSDSYSYNVFLHNPTYTALDYRGQGTLVTVSS
[out] 41900

[in] Provide only the value of recorded kon for 23D5.1 (VHH, Autonomous humanised VH domain (DotBody), from the 16C2.1-based library without heat challenge; E. coli, ATG codon 5' (possible initiator Met), 3' hexahistidine tag; also called DotBody 23D5.1) VHH: EVQLVESGGGLVQPGGSLRLSCAISGFDLATTDIDWVRQAPGKGLEWVARIFRPSDFTDYADSVKGRFTISADTSKNTVYLQMNSLRAEDTAVYYCVRPDSYAYNILFVTRTFNALHYRGQGTLVTVSS
[out] 205000

[in] Provide only the value of recorded kon for 20A3.1 (VHH, Autonomous humanised VH domain (DotBody), from the 16A2.1-based library with heat challenge; E. coli, ATG codon 5' (possible initiator Met), 3' hexahistidine tag; also called DotBody 20A3.1) VHH: EVQLVESGGGLVQPGGSLRLSCAISGFSLADTDIDWVRQAPGKGLEWVARIFSSSGSTYYADSVKGRFTISADTSKNTVYLQMNSLRAEDTAVYYCDRADSVGYNVIFPGSTYSRSGYRGQGTLVTVSS
[out] 102000

---
[in] Provide only the value of recorded kon for 16A6.1 (VHH, E. coli, ATG codon 5' (possible initiator Met), 3' hexahistidine tag; also called clone 16A6.1) VHH: EVQLVESGGGLVQPGGSLRLSCAISGFSLAATDIDWVRQAPGKGLEWVARIFPFSGSTDYTDSVKGRFTISADTSKNTVYLQMNSLRAEDTAVYYCGRSDSYSYNVFLHDPAYTALDYRGQGTLVTVSS
[out] 122000
